Assay details: Stability to serum proteases (HPLC)
Type: in vitro ADME, mouse
Condition info: mouse, mouse serum; after 4 hours (test 1); read-out: peptide degraded in the presence of mouse serum
Ends that are not written are not given here.
Measured parameter: metabolised at 4 h, 0.71 mg/ml (%)
I only need the number, in %, no unit after it.

Short answer for NPDESSKPNMI [peptide No. 5, NPDESSKPNMI] : metabolised at 4 h, 0.71 mg/ml was 7.5

###

Assay details: Stability to serum proteases (HPLC)
Assay type: in vitro ADME, mouse
Condition info: mouse, mouse serum; after 24 hours of exposure to serum proteases; read-out: peptide still present as an intact peptide
Ends that are not written are not given here.
Measured parameter: remaining at 24 h, 0.71 mg/ml

For this sequence ( NPDESSKPNMI [peptide No. 5, NPDESSKPNMI] ), measured remaining at 24 h, 0.71 mg/ml is > 90%
